# test-system: Sodium-dependent dopamine transporter (Homo sapiens)
# Sequence (Q01959 whole entry): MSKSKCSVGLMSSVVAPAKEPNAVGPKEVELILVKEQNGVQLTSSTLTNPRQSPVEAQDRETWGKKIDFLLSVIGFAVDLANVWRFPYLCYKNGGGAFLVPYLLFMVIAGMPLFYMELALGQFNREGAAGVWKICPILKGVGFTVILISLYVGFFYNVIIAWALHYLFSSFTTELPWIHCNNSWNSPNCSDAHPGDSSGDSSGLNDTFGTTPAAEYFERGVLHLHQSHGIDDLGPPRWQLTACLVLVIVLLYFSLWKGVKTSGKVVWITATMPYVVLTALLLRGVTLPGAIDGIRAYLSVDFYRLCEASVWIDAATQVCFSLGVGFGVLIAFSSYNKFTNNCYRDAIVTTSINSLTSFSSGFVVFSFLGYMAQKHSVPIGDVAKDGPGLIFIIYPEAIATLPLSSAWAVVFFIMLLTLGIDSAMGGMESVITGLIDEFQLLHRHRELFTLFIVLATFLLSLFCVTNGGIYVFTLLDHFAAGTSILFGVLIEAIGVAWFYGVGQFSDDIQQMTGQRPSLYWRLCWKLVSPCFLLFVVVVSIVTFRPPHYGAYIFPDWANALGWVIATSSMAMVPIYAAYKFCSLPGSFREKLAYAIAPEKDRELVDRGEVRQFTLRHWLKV
# run-description: Displacement of [3H] dopamine from DAT in HEK293 cells assessed as inhibition constant incubated for 1 hr by topcount plate reader analysis
recorded-endpoint: Ki (µM)
Numbers only; they are read as µM.

What measured Ki goes with c1ccc2c(CCC3NCCc4cc5c(cc43)OCO5)c[nH]c2c1 (stereo unspecified) ? 0.68
